method: Cytotoxicity against HEL cells assessed as alteration of cell morphology
Format: cell-based
conditionSummary: human
Below is a list of entries, each paired with its recorded MCC value.

Some compounds with recorded MCC:
| compound | result |
| --- | --- |
| CCCCCc1ccc(-c2cc3cn([C@H]4C[C@H](OC(=O)[C@@H](NC(=O)[C@@H]5CCCN5C(=O)[C@@H](N)C(C)C)C(C)C)[C@@H](CO)O4)c(=O)nc3o2)cc1 | 60 µM |
| CCCCCc1ccc(-c2cc3cn([C@H]4C[C@H](OC(=O)[C@@H](NC(=O)[C@@H]5CCCN5C(=O)[C@@H](N)C(C)C)C(C)C)[C@@H](COC(=O)[C@@H](NC(=O)[C@@H]5CCCN5C(=O)[C@@H](N)C(C)C)C(C)C)O4)c(=O)nc3o2)cc1 | > 5 µM |
| CCCCCc1ccc(-c2cc3cn([C@H]4C[C@H](O)[C@@H](CO)O4)c(=O)nc3o2)cc1 [CF1743] | > 20 µM |
| CCCCCc1ccc(-c2cc3cn([C@H]4C[C@H](O)[C@@H](COC(=O)[C@@H](NC(=O)[C@@H]5CCCN5C(=O)[C@@H](N)CC(N)=O)C(C)C)O4)c(=O)nc3o2)cc1 | > 5 µM |

Now examine the next entry.
Please fill in: MCC reported for CCCCCc1ccc(-c2cc3cn([C@H]4C[C@H](O)[C@@H](COC(=O)[C@H](C)NC(=O)[C@@H]5CCCN5C(=O)[C@@H](N)C(C)C)O4)c(=O)nc3o2)cc1 = > 0.5 µM
